B1: Twister Ribozyme (parent)
chain: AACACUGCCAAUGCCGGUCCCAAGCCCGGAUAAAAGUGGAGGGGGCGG

Variants of: B1
Assay: self-cleavage, relative activity (ratio to wild type); higher = more cleavage; co-transcriptional
Property: self-cleavage; scope: individual variants
Please reply with the value in numeric form only.

# annotated cases, reported self-cleavage shown
1) AACACUACCGAUGCCGGUCCCAAGCCCGGAUAAAAGUGGAGGGGGCGG	0.982
2) AACACUGCCGAUGCCGGUCCCAAGCCCGUAUAAAAGUGGAGGGGGCGG	1.12
3) AACACUGCCAAUGCCGGUCCCAAGCCCGGAUAAAAAGGGAGGGGGCGG	0.32

// returns reported self-cleavage for input AACGCUGCCUAUGCCGGUCCCAAGCCCGGAUAAAAGUGGAGGGGGCGG 1.04

Item: AACACUGCCAAUGCCGGUCCCAAGCCCGGAUGAAAGUGGAGGGGGCAG 0.924

Next: AACACUGCCAAUUCCAGUCCCAAGCCCGGAUAAAAGUGGAGGGGGCGG 0.302

Then this variant: AACACUGCCAAUUGCGGUCCCAAGCCCGGAUAAAAGUGGAGGGGGCGG 0.512

Then this variant: AACACUGCCAACGCCGGUCCCAAGCCCCGAUAAAAGUGGAGGGGGCGG 0.814

Here is the next variant: AACACUGCCAAUGCGGGUCCAAAGCCCGGAUAAAAGUGGAGGGGGCGG 0.077

Proceed to AACACUGUCAAUGCCGGUCCCAAGCCCGGAUAAAAGUGGAGGGAGCGG 0.658

AACACUGCCAAUGCCGGUCCCAAGUCCGGAUAAAAGUGGAGCGGGCGG ? 0.154

Next record, please: AACACUGCCAAUGCCGGUCCCAAGCCCGGAUAUAAGUGGAGGUGGCGG 0.421

Recorded values, source the RNAGym collection of RNA variant scans (doi:10.7554/elife.80360).
